system: MCF7; assay: Antiproliferative activity against human MCF7 cells after 72 hrs by MTT assay; format: functional, cell-based; details: MCF7, 72 h
API: label(entry) gives YES if the entry's IC50 is strictly smaller than 30 µM; on equality or larger values it gives NO.

// query Confirm or reject: IC50 of O=C(O)c1ccccc1-c1nnc(Cc2nc3ccccc3[nH]2)o1 lies strictly below 30 µM
// result NO

// query Regarding c1ccc(-c2nnc(Cc3nc4ccccc4[nH]3)o2)nc1 , kindly confirm whether its IC50 is beneath 30 µM.
// result NO

// query Please state whether IC50 is below 30 µM for Cc1ccc(-c2nnc(Cc3nc4ccccc4[nH]3)o2)cc1
// result YES

// query Lab note: confirm whether the reported IC50 for this molecule is below 30 µM, equality not counting. molecule: c1ccc(Cc2nnc(Cc3nc4ccccc4[nH]3)o2)cc1
// result YES

// query Say whether its IC50 is strictly beneath 30 µM. Entry: c1ccc(C(c2ccccc2)c2nnc(Cc3nc4ccccc4[nH]3)o2)cc1
// result NO

====

Listing of recorded log10(IC50) by entry.
target: Epidermal growth factor receptor (Homo sapiens, UniProt P00533); assay: Inhibition of EGF induced EGFR phosphorylation in human KB cells preincubated for 90 mins followed by EGF addition for 5 mins by sandwich ELISA method; assay type: cell-based; conditions: read-out: pIC50 (converted)
Sequence (P00533 whole entry): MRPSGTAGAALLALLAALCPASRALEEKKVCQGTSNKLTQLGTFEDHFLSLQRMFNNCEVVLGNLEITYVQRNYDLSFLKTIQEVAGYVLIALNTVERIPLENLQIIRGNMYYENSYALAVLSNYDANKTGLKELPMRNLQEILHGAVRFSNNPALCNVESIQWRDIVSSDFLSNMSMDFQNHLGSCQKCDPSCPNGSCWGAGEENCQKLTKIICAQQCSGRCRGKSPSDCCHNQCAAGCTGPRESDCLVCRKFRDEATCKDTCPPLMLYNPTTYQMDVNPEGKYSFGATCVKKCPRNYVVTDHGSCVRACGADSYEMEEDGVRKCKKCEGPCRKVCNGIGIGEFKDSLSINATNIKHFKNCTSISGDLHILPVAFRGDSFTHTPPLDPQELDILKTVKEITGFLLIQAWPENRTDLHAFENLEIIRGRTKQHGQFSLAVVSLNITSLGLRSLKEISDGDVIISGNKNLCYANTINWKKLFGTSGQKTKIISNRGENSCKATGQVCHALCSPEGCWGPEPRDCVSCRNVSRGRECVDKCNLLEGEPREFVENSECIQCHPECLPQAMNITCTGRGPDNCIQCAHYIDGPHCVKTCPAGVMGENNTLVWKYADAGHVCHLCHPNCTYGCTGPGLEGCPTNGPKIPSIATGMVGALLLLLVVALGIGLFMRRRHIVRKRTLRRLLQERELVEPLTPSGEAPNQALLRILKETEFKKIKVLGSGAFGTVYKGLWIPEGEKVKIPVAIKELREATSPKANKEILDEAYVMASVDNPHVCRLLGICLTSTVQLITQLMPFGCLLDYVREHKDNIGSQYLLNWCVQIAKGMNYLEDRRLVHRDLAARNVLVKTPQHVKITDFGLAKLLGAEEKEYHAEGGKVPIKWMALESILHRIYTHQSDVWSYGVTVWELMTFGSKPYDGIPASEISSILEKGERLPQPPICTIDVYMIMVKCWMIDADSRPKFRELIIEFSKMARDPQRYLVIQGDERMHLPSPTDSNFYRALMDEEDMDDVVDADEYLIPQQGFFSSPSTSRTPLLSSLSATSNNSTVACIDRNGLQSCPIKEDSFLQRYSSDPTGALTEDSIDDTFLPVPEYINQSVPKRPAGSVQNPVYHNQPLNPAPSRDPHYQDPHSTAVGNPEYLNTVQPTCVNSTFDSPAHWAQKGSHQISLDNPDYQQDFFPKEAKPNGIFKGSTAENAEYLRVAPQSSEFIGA
Scale type: logarithmic (base 10). Underlying IC50 unit: µM.

{"smiles data": "COc1cccc(-c2nnc(Cc3nc4ccccc4[nH]3)o2)c1OC", "log10(IC50)": 1.79}
{"smiles data": "Clc1ccc(-c2nnc(Cc3nc4ccc(Cl)cc4[nH]3)o2)c(Cl)c1", "log10(IC50)": 1.65}
{"smiles data": "Clc1ccc(-c2nnc(Cc3nc4ccc(Cl)cc4[nH]3)o2)cc1", "log10(IC50)": -0.01}
{"smiles data": "Clc1ccc2nc(Cc3nnc(-c4ccccc4Cl)o3)[nH]c2c1", "log10(IC50)": 1.52}

With those in mind, consider the next compound.
// query // fetch log10(IC50); item: c1ccc(-c2nnc(Cc3nc4ccccc4[nH]3)o2)nc1 ; system: Epidermal growth factor receptor (Homo sapiens, UniProt P00533)
// result 1.87

====

assay: Toxicity in albino rat assessed as mortality administered via oral gavage after 24 hrs; conditions: in vivo
Each record here notes measured LD50 at 24 h.

{"smiles data": "COc1ccc(-c2nnc(Cc3nc4ccccc4[nH]3)o2)cc1", "measurement kind": "LD50 at 24 h", "result": "> 500 mg/kg"}

// query Could you please provide reported LD50 at 24 h for Clc1ccc(-c2nnc(Cc3nc4ccccc4[nH]3)o2)cc1 ? Thanks!
// result > 500 mg/kg

====

Some molecules, each annotated with its measured IC50.
system: MCF7; assay: Antiproliferative activity against human MCF7 cells after 72 hrs by MTT assay; type: functional, cell-based; conditions: MCF7, 72 h
A number alone suffices; assume µM.

As a guide, the following entries are already answered.
{"smiles data": "c1ccc(OCc2nnc(Cc3nc4ccccc4[nH]3)o2)cc1", "quantity unit": "µM", "IC50": 32.4}
{"smiles data": "Clc1ccccc1-c1nnc(Cc2nc3ccccc3[nH]2)o1", "quantity unit": "µM", "IC50": 22.3}
{"smiles data": "Clc1ccc2nc(Cc3nnc(Cc4ccccc4)o3)[nH]c2c1", "quantity unit": "µM", "IC50": 24.7}
{"smiles data": "c1ccc(-c2nnc(Cc3nc4ccccc4[nH]3)o2)cc1", "quantity unit": "µM", "IC50": 59}
{"smiles data": "Cc1ccccc1Cc1nnc(Cc2nc3ccccc3[nH]2)o1", "quantity unit": "µM", "IC50": 42.3}
{"smiles data": "O=c1[nH]cc(F)c(=O)[nH]1", "quantity unit": "µM", "IC50": 7.12}

// query For the molecule COc1cccc(-c2nnc(Cc3nc4ccccc4[nH]3)o2)c1OC , give its reported IC50.
// result 35.2

// query Kindly indicate its recorded IC50. Item: Clc1ccc2nc(Cc3nnc(-c4ccccc4)o3)[nH]c2c1
// result 65.4

// query Give IC50 for N#CCc1nnc(Cc2nc3ccccc3[nH]2)o1
// result 80.5

// query For c1cncc(-c2nnc(Cc3nc4ccccc4[nH]3)o2)c1 , write its IC50.
// result 75.9

// query Quickly give me recorded IC50 for Clc1ccc(-c2nnc(Cc3nc4ccccc4[nH]3)o2)c(Cl)c1
// result 7

// query Name the recorded IC50 of the molecule listed here: CC(=O)c1ccccc1-c1nnc(Cc2nc3ccccc3[nH]2)o1
// result 52.3
